Biological target: T1, DegS R178A (E. coli, UniProt P0AEE3 27-355, R178A)
T1 sequence (looked up): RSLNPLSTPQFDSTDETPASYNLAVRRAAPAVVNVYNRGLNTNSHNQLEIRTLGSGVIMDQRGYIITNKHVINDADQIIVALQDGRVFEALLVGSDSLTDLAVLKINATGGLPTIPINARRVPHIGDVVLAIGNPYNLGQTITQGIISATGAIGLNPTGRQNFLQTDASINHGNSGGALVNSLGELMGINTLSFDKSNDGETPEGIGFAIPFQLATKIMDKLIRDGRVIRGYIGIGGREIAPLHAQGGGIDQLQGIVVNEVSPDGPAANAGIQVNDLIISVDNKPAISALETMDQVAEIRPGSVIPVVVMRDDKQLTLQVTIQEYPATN
Assay: fluorescence polarisation
Where no end group is shown, it is not given here. fluorescein = fluorescein, a fluorescent label on the peptide N-terminus
measurement_name: Kd (µM)
Respond with the bare value in µM.

In: Consider the binder fluorescein-DNRDGNVYYF [fluorescent OMP peptide fluorescein-DNRDGNVYYF] and give its measured Kd.
Out: 3.6

Just for reference, paper PMC4351158 is where these values come from.
